- tested target: Mot3 (UniProt P54785)
- Sequence: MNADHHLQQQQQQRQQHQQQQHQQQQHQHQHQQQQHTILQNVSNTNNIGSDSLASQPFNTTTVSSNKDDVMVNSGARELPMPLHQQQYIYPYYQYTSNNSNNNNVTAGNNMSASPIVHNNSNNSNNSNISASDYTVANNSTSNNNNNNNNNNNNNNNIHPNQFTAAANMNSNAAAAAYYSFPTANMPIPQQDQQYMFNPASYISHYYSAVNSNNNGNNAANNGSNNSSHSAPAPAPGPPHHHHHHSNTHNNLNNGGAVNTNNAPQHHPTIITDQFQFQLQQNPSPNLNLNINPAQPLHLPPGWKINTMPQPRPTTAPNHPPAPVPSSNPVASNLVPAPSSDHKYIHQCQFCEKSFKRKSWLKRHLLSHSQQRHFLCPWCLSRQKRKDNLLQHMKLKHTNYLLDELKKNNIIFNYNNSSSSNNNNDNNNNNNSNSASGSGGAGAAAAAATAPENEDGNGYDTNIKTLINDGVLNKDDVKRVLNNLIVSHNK
- test name: PBM E-score (8-mer binding enrichment) (E-score (-0.5 to 0.5)); higher = stronger / more preferred TF binding
- details: protein concentration: 200 nM; construct: GST-full length
Whole data set: some 33,000 sequences, median “E-score (-0.5 to 0.5)” near -0.035, cut for the highest 2% near 0.34. For the sample, the highest values were picked, then their nearest neighbours and some sequences at random.
# if value of PBM E-score reaches 0.2, tag 1; if it stays below, tag -1

Ask | Test whether the sequence GGCTAACC records PBM E-score of 0.2 or higher.
Reply | -1

Ask | Same question for ATATACAC please.
Reply | 1

Ask | Try this sequence next: GGGTAGTA
Reply | -1

Ask | Again, but for AGGGTAGG
Reply | -1

Ask | Same read-out for CTACCTTA ?
Reply | -1

Ask | Try ATGTGCTG next.
Reply | -1

Ask | Okay, and ATCGGCAT ?
Reply | -1

Ask | And for CCATGATA ?
Reply | -1

Ask | What do you have for GTAAGGGA ?
Reply | -1

Ask | Next: ATACCTGA
Reply | -1

Ask | Continue with CCAAGGAA
Reply | 1

Ask | One more sequence: CTACCTGA
Reply | -1

Ask | Next sequence: AACACGGT
Reply | 1

Ask | Now try CCCACAGA .
Reply | -1

Ask | Now give it for ACCCGTCA too.
Reply | -1

Ask | Try the sequence ACAGGAAG
Reply | -1

Ask | # iterate: AAATACAT
Reply | 1

Ask | Try the sequence AAATACAA
Reply | 1

Ask | Item: ATAGGGAT
Reply | -1

Ask | Now consider AACAGAAT and answer again.
Reply | -1

Ask | For CACCAGGA then?
Reply | -1

Ask | Same question for AATTGGTA please.
Reply | -1

Ask | Input GACACGAC
Reply | 1

Ask | // repeat for AAACGCAC and report
Reply | -1

Ask | How about AACACGGC ?
Reply | 1

Ask | Try the sequence AGGGTCCG
Reply | -1

Ask | Same lookup for TACAAGCA , please.
Reply | 1

Ask | Another sequence: GACACTAA
Reply | -1

Ask | Follow-up entry: CAATGAGG
Reply | -1

Ask | Field entry: TCAAGGAA
Reply | 1

Ask | Please give the result for GTACCTTA too.
Reply | 1

Ask | Ok, now ATGTAGGC
Reply | 1

Ask | Item: GTAGGTAA
Reply | 1

Ask | Repeat with GAATACAA
Reply | 1

Ask | And what about the sequence ATAGGCAC ?
Reply | 1

Ask | Try the sequence AACACGAA
Reply | 1

Ask | // next record AACACGGA
Reply | 1

Ask | Let us now turn to ATGAATGG
Reply | -1

Ask | ATAGGTAG , same question.
Reply | -1

Ask | Repeat for the following sequence: CGGCCGGA
Reply | -1

Ask | Try ATCTAAAG next.
Reply | -1

Ask | Try this sequence too: GCATTCAC
Reply | -1

Ask | Now the same for ACATGAAG
Reply | 1

Ask | Repeat with GTGTAGAA
Reply | 1

Ask | Another sequence: AAAGGGCC
Reply | -1

Ask | Same question for CTAGGCAA please.
Reply | 1

Ask | Same read-out for GTAAGGCA ?
Reply | 1

Ask | Now give it for ATAGGCAA too.
Reply | 1

Ask | Same again, this time with ATAAGGCA
Reply | 1

Ask | Another sequence: GCATGACA
Reply | -1

Ask | Moving on to the next sequence: GCGTAGAA
Reply | 1

Ask | Subsequent entry: ATAGCACG
Reply | -1

Ask | Then this sequence: ATAGCGCC
Reply | 1

Ask | Field entry: GTGTAGTA
Reply | 1

Ask | Entry to check: AGTTAGAG
Reply | -1

Ask | Do the same for AGTCCCCA please
Reply | -1

Ask | What do we get for AAATACAG ?
Reply | 1

Ask | Cool, now ACAATGGT
Reply | -1

Ask | // same read-out, input: CTAAGGTA
Reply | 1

Ask | Can you handle AACACGTT next?
Reply | 1

Ask | // next record CACTTTGG
Reply | -1

Ask | Field entry: CAATACAC
Reply | 1

Ask | Field entry: CTAGGTAA
Reply | -1

Ask | Same read-out for ATAGGTAC ?
Reply | 1

Ask | Try this sequence next: AAATACCC
Reply | -1

Ask | Please give the result for ATCAACGC too.
Reply | -1

Ask | Same again, this time with ATAGGTGC
Reply | 1

Ask | Continue with GTAGGTGA
Reply | -1

Ask | Likewise for CTAGGCTA ?
Reply | -1

Ask | How about AAATTGGA ?
Reply | -1

Ask | Another sequence: GTAGGTTA
Reply | 1

Ask | Subsequent entry: GTATACAC
Reply | 1

Ask | # repeat for AGTGATAG
Reply | -1

Ask | ATAGGTAA ?
Reply | 1

Ask | Please give the result for ACAAGGAA too.
Reply | 1

Ask | AGGATACA ?
Reply | -1

Ask | Now consider AACACGAT .
Reply | 1

Ask | Also CCATGATC ?
Reply | -1

Ask | Same for AGCGTGAT
Reply | -1

Ask | Field entry: CTATACAC
Reply | 1

Ask | Record: ACATGAAC
Reply | 1

Ask | Also need ACATGACA , thanks.
Reply | 1

Ask | And what about the sequence GTAAGGTA ?
Reply | 1

Ask | And ATGTAGGA ?
Reply | -1

Ask | Try the sequence ATAGGCGC
Reply | 1

Ask | And for ATAGGCTC ?
Reply | 1

Ask | Please give the result for CCTTTGAC too.
Reply | -1

Ask | Quick one: ACATGATA
Reply | 1

Ask | Again, but for GCAGGAAA
Reply | 1

Ask | Thanks! And CTCCAAAA ?
Reply | -1

Ask | Same question for AATCAAGC please.
Reply | -1

Data provenance is the supplement of paper PMC3334620.
